- Test system: MCF7
- test description: Anticancer activity against human MCF7 cells assessed as cell growth inhibition incubated for 48 hrs by SRB assay
- Type: functional

compound: Cc1nn(-c2ccccc2)cc1/C=N/Nc1nc(Nc2ccccc2)nc(Nc2ccc(S(N)(=O)=O)cc2)n1
unit name: µM
GI50: 1.55

compound: NS(=O)(=O)c1ccc(Nc2nc(N/N=C/c3ccccn3)nc(Nc3ccccc3)n2)cc1
unit name: µM
GI50: 1.1

compound: NS(=O)(=O)c1ccc(Nc2nc(N/N=C/c3ccc(C(F)(F)F)cc3)nc(Nc3ccccc3)n2)cc1
unit name: µM
GI50: 2.18

compound: O=c1[nH]cc(F)c(=O)[nH]1 [FLUOROURACIL]
unit name: µM
GI50: 0.07

###

- Tested on: UACC-62
- test description: Anticancer activity against human UACC-62 cells assessed as cell growth inhibition at 10 uM incubated for 48 hrs by SRB assay relative to control
- Type: functional
- condition summary: read-out: GI

chemical string: COc1ccc(/C=N/Nc2nc(Nc3ccccc3)nc(Nc3ccc(S(N)(=O)=O)cc3)n2)cc1
inhibition of growth at 10 µM: 12%
--
chemical string: NS(=O)(=O)c1ccc(Nc2nc(N/N=C/c3ccc(F)cc3)nc(Nc3ccccc3)n2)cc1
inhibition of growth at 10 µM: 39%
--
chemical string: Cc1ccc(/C=N/Nc2nc(Nc3ccccc3)nc(Nc3ccc(S(N)(=O)=O)cc3)n2)cc1
inhibition of growth at 10 µM: < 10%
--
chemical string: Cc1nn(-c2ccccc2)cc1/C=N/Nc1nc(Nc2ccccc2)nc(Nc2ccc(S(N)(=O)=O)cc2)n1
inhibition of growth at 10 µM: 127%
--
chemical string: NS(=O)(=O)c1ccc(Nc2nc(N/N=C/c3cccc4ccccc34)nc(Nc3ccccc3)n2)cc1
inhibition of growth at 10 µM: 18%
--
chemical string: NS(=O)(=O)c1ccc(Nc2nc(N/N=C/c3ccc(Cl)cc3)nc(Nc3ccccc3)n2)cc1
inhibition of growth at 10 µM: 25%
--
chemical string: NS(=O)(=O)c1ccc(Nc2nc(N/N=C/c3ccc(C(F)(F)F)cc3)nc(Nc3ccccc3)n2)cc1
inhibition of growth at 10 µM: 85%
--
chemical string: CCCCc1nc(/C=N/Nc2nc(Nc3ccccc3)nc(Nc3ccc(S(N)(=O)=O)cc3)n2)c(Cl)[nH]1
inhibition of growth at 10 µM: 27%
--
chemical string: NS(=O)(=O)c1ccc(Nc2nc(N/N=C/CCc3ccccc3)nc(Nc3ccccc3)n2)cc1
inhibition of growth at 10 µM: < 10%

###

- System: SK-MEL-2
- test description: Anticancer activity against human SK-MEL-2 cells assessed as cell growth inhibition at 10 uM incubated for 48 hrs by SRB assay relative to control
- Type: functional
- condition summary: read-out: GI
Entries and their inhibition of growth at 10 µM
experimental readout: inhibition of growth at 10 µM (%)

chemical string: Cc1nn(-c2ccccc2)cc1/C=N/Nc1nc(Nc2ccccc2)nc(Nc2ccc(S(N)(=O)=O)cc2)n1
tested system: SK-MEL-2
qualifier: =
observed: 45

chemical string: NS(=O)(=O)c1ccc(Nc2nc(N/N=C/c3ccc(Cl)cc3)nc(Nc3ccccc3)n2)cc1
tested system: SK-MEL-2
qualifier: =
observed: 18

chemical string: NNc1nc(Nc2ccccc2)nc(Nc2ccc(S(N)(=O)=O)cc2)n1
tested system: SK-MEL-2
qualifier: <
observed: 10

chemical string: NS(=O)(=O)c1ccc(Nc2nc(N/N=C/c3ccc([N+](=O)[O-])cc3)nc(Nc3ccccc3)n2)cc1
tested system: SK-MEL-2
qualifier: =
observed: 81

###

- Tested on: EKVX
- test description: Anticancer activity against human EKVX cells assessed as cell growth inhibition at 10 uM incubated for 48 hrs by SRB assay relative to control
- Format: functional
- condition summary: read-out: GI
Recorded inhibition of growth at 10 µM values for a group of compounds are listed next.
experimental readout: inhibition of growth at 10 µM (%)

chemical string: NS(=O)(=O)c1ccc(Nc2nc(N/N=C/c3ccc(Cl)cc3)nc(Nc3ccccc3)n2)cc1
experimental readout: inhibition of growth at 10 µM
unit name: %
qualifier: =
observed: 23
--
chemical string: Cc1ccc(/C=N/Nc2nc(Nc3ccccc3)nc(Nc3ccc(S(N)(=O)=O)cc3)n2)cc1
experimental readout: inhibition of growth at 10 µM
unit name: %
qualifier: =
observed: 21
--
chemical string: NNc1nc(Nc2ccccc2)nc(Nc2ccc(S(N)(=O)=O)cc2)n1
experimental readout: inhibition of growth at 10 µM
unit name: %
qualifier: <
observed: 10
--
chemical string: NS(=O)(=O)c1ccc(Nc2nc(N/N=C/c3cccc4ccccc34)nc(Nc3ccccc3)n2)cc1
experimental readout: inhibition of growth at 10 µM
unit name: %
qualifier: =
observed: 20
--
chemical string: NS(=O)(=O)c1ccc(Nc2nc(N/N=C/c3ccc([N+](=O)[O-])cc3)nc(Nc3ccccc3)n2)cc1
experimental readout: inhibition of growth at 10 µM
unit name: %
qualifier: =
observed: 16
--
chemical string: NS(=O)(=O)c1ccc(Nc2nc(N/N=C/c3ccc(F)cc3)nc(Nc3ccccc3)n2)cc1
experimental readout: inhibition of growth at 10 µM
unit name: %
qualifier: =
observed: 37
--
chemical string: CCCCc1nc(/C=N/Nc2nc(Nc3ccccc3)nc(Nc3ccc(S(N)(=O)=O)cc3)n2)c(Cl)[nH]1
experimental readout: inhibition of growth at 10 µM
unit name: %
qualifier: <
observed: 10
--
chemical string: COc1ccc(/C=N/Nc2nc(Nc3ccccc3)nc(Nc3ccc(S(N)(=O)=O)cc3)n2)cc1
experimental readout: inhibition of growth at 10 µM
unit name: %
qualifier: =
observed: 11
--
chemical string: CN(C)c1ccc(/C=N/Nc2nc(Nc3ccccc3)nc(Nc3ccc(S(N)(=O)=O)cc3)n2)cc1
experimental readout: inhibition of growth at 10 µM
unit name: %
qualifier: <
observed: 10
--
chemical string: NS(=O)(=O)c1ccc(Nc2nc(N/N=C/CCc3ccccc3)nc(Nc3ccccc3)n2)cc1
experimental readout: inhibition of growth at 10 µM
unit name: %
qualifier: <
observed: 10
--
chemical string: NS(=O)(=O)c1ccc(Nc2nc(N/N=C/c3ccccc3)nc(Nc3ccccc3)n2)cc1
experimental readout: inhibition of growth at 10 µM
unit name: %
qualifier: =
observed: 29
--
chemical string: NS(=O)(=O)c1ccc(Nc2nc(N/N=C/c3ccccn3)nc(Nc3ccccc3)n2)cc1
experimental readout: inhibition of growth at 10 µM
unit name: %
qualifier: =
observed: 86
--
chemical string: NS(=O)(=O)c1ccc(Nc2nc(N/N=C/c3ccc4c(c3)OCO4)nc(Nc3ccccc3)n2)cc1
experimental readout: inhibition of growth at 10 µM
unit name: %
qualifier: =
observed: 26
--
chemical string: NS(=O)(=O)c1ccc(Nc2nc(N/N=C/c3c[nH]c4ccccc34)nc(Nc3ccccc3)n2)cc1
experimental readout: inhibition of growth at 10 µM
unit name: %
qualifier: =
observed: 32
--
chemical string: Cc1nn(-c2ccccc2)cc1/C=N/Nc1nc(Nc2ccccc2)nc(Nc2ccc(S(N)(=O)=O)cc2)n1
experimental readout: inhibition of growth at 10 µM
unit name: %
qualifier: =
observed: 81
--
chemical string: NS(=O)(=O)c1ccc(Nc2nc(N/N=C/c3ccc(C(F)(F)F)cc3)nc(Nc3ccccc3)n2)cc1
experimental readout: inhibition of growth at 10 µM
unit name: %
qualifier: =
observed: 46
--
chemical string: NS(=O)(=O)c1ccc(Nc2nc(N/N=C/c3cccs3)nc(Nc3ccccc3)n2)cc1
experimental readout: inhibition of growth at 10 µM
unit name: %
qualifier: =
observed: 24
--
chemical string: NS(=O)(=O)c1ccc(Nc2nc(N/N=C/C=C/c3ccccc3)nc(Nc3ccccc3)n2)cc1
experimental readout: inhibition of growth at 10 µM
unit name: %
qualifier: =
observed: 28

###

- System: RXF 393
- test description: Anticancer activity against human RXF 393 cells assessed as cell growth inhibition at 10 uM incubated for 48 hrs by SRB assay relative to control
- Format: functional
- condition summary: read-out: GI

chemical string: NS(=O)(=O)c1ccc(Nc2nc(N/N=C/c3ccccc3)nc(Nc3ccccc3)n2)cc1
tested system: RXF 393
qualifier: =
inhibition of growth at 10 µM / %: 87

chemical string: NS(=O)(=O)c1ccc(Nc2nc(N/N=C/c3cccs3)nc(Nc3ccccc3)n2)cc1
tested system: RXF 393
qualifier: =
inhibition of growth at 10 µM / %: 52

chemical string: NS(=O)(=O)c1ccc(Nc2nc(N/N=C/c3c[nH]c4ccccc34)nc(Nc3ccccc3)n2)cc1
tested system: RXF 393
qualifier: =
inhibition of growth at 10 µM / %: 125

chemical string: NS(=O)(=O)c1ccc(Nc2nc(N/N=C/C=C/c3ccccc3)nc(Nc3ccccc3)n2)cc1
tested system: RXF 393
qualifier: =
inhibition of growth at 10 µM / %: 108

chemical string: Cc1ccc(/C=N/Nc2nc(Nc3ccccc3)nc(Nc3ccc(S(N)(=O)=O)cc3)n2)cc1
tested system: RXF 393
qualifier: =
inhibition of growth at 10 µM / %: 102

chemical string: NS(=O)(=O)c1ccc(Nc2nc(N/N=C/c3ccc4c(c3)OCO4)nc(Nc3ccccc3)n2)cc1
tested system: RXF 393
qualifier: =
inhibition of growth at 10 µM / %: 77

chemical string: NS(=O)(=O)c1ccc(Nc2nc(N/N=C/c3ccccn3)nc(Nc3ccccc3)n2)cc1
tested system: RXF 393
qualifier: =
inhibition of growth at 10 µM / %: 174

chemical string: CCCCc1nc(/C=N/Nc2nc(Nc3ccccc3)nc(Nc3ccc(S(N)(=O)=O)cc3)n2)c(Cl)[nH]1
tested system: RXF 393
qualifier: <
inhibition of growth at 10 µM / %: 10

chemical string: NNc1nc(Nc2ccccc2)nc(Nc2ccc(S(N)(=O)=O)cc2)n1
tested system: RXF 393
qualifier: <
inhibition of growth at 10 µM / %: 10
